- ASSAY_PROCEDURE: MicroPET imaging, ROI quantification
- Format: in vivo, mice
- EXPERIMENTAL_CONTEXT: male, athymic nu/nu, mouse, liver, iv, total radioactivity; 30 min post-injection, 3.7 MBq i.v., mean ± SD, n = 4; read-out: liver uptake (microPET)
Residues, ends and D or L forms follow the SMILES beside them. *: point of attachment. Propanoyl(2-F) = CC(F)C(=O)*

MOLECULE: CC(C)C[C@H](NC(=O)[C@@H](N)Cc1ccc(O)cc1)C(=O)N[C@@H](Cc1ccccc1)C(=O)N[C@@H](CO)C(=O)N[C@H](C(=O)N[C@@H](Cc1c[nH]cn1)C(=O)N[C@@H](Cc1c[nH]c2ccccc12)C(=O)N1CCC[C@H]1C(=O)N1CCC[C@H]1C(=O)N[C@@H](CC(C)C)C(=O)N[C@@H](CCCCNC(=O)C(C)F)C(=O)N[C@@H](C)C(=O)O)C(C)C (stereo partly shown) [[^18F]FP-Met-pep1] (H-YLFSVHWPPLK(Propanoyl(2-F))A-OH)
tissue uptake at 0.5 h [%ID/g]: 11.5

# credit: paper PMC5997322
